- Test Summary: physchem
- Condition Context: octanol/water, pH 7.4
Below is a list of entries, each paired with its recorded logD value.
Lab note: jot down the number only; don't add units.

Would you please look over these solved cases?
{"columns": ["Structure As Smiles", "Reported"],
 "data": [
  ["CC1(C)CCN(Cc2ccc3c(c2)OCO3)CC1", 2.3],
  ["c1cc2c(cc1CN1CCC13COC3)OCO2", 1.3],
  ["O=C1CCCN(Cc2ccc3c(c2)OCO3)C1", 0.1],
  ["CN(C)CCC1(Cc2ccc(C(C)(C)C)cc2)COC1", 1.7],
  ["c1cc2c(cc1CN1CCC3(COC3)C1)OCO2", 0.7]
]}

Dear colleague, I am looking for the recorded logD of the following compound: O=C1CCN(Cc2ccc3c(c2)OCO3)C1
0.1

logD for CC1(C)CCCN(Cc2ccc3c(c2)OCO3)C1 ?
2.3

Quick one: logD of CN(C)CCCCc1ccc(C2(C)COC2)cc1 ?
0.8

Which logD is listed for CC1(C)CCCCN1Cc1ccc2c(c1)OCO2 ?
1.1
